Attribute: logP
Experiment: Partition coefficient (logP)
Type: physicochemical
Conditions: octanol/water
Lab note: record just the number, no unit beside it.

CC12CCC(=O)C=C1CCC1C3CC[C@](O)(C(=O)CO[C@H]4O[C@@H](CO)[C@@H](O)[C@H](O)[C@H]4O)C3(C)CC(O)[C@@]12F (stereo partly specified) | 0.84
CC12CCC(=O)C=C1CCC1C3CC[C@](O)(C(=O)CO)C3(C)CC(O)[C@@]12F (stereo partly specified) | 1.73
C[C@]12CCC(=O)C=C1CC[C@@H]1[C@@H]2[C@@H](O)C[C@@]2(C)[C@H]1CC[C@]2(O)C(=O)CO [HYDROCORTISONE] | 1.54

input: Would you kindly share the measured logP for CC12CCC(=O)C=C1CCC1C2C(O)CC2(C)C1CC[C@]2(O)C(=O)CO[C@@H]1O[C@@H](CO)[C@@H](O)[C@H](O)[C@H]1O (stereo partly specified) ?
output: 0.15

input: Would you kindly share the measured logP for CC12CCC(=O)C=C1CCC1C2C(O)CC2(C)C1CC[C@]2(O)C(=O)CO[C@@H]1O[C@H](CO)[C@@H](O)[C@H](O)[C@H]1O (stereo partly specified) ?
output: 0.44

input: Would you kindly share the measured logP for CC12CCC(=O)C=C1CCC1C3CC[C@](O)(C(=O)CO[C@H]4O[C@H](CO)[C@@H](O)[C@H](O)[C@H]4O)C3(C)CC(O)[C@@]12F (stereo partly specified) ?
output: 0.25

input: Would you kindly share the measured logP for `C[C@]12C=CC(=O)C=C1CC[C@@H]1[C@@H]2[C@@H](O)C[C@@]2(C)[C@H]1CC[C@]2(O)C(=O)CO` ?
output: 1.55

input: Would you kindly share the measured logP for `C[C@@H]1C[C@H]2[C@@H]3CCC4=CC(=O)C=C[C@]4(C)[C@@]3(F)[C@@H](O)C[C@]2(C)[C@@]1(O)C(=O)CO` ?
output: 1.72

input: Would you kindly share the measured logP for C[C@]12C=CC(=O)C=C1CC[C@@H]1[C@@H]2C(O)C[C@@]2(C)[C@H]1CC[C@]2(O)C(=O)CO[C@@H]1O[C@@H](CO)[C@@H](O)[C@H](O)[C@H]1O (stereo partly specified) ?
output: 0.11

input: Would you kindly share the measured logP for C[C@]12C=CC(=O)C=C1CC[C@@H]1[C@@H]2C(O)C[C@@]2(C)[C@H]1CC[C@]2(O)C(=O)CO[C@@H]1O[C@H](CO)[C@@H](O)[C@H](O)[C@H]1O (stereo partly specified) ?
output: 0.27

input: Would you kindly share the measured logP for `C[C@]12C=CC(=O)C=C1CC[C@@H]1[C@@H]2[C@@H](O)C[C@@]2(C)[C@H]1CC[C@]2(O)C(=O)CO[C@@H]1O[C@H](CO)[C@@H](O[C@@H]2O[C@H](CO)[C@@H](O)[C@H](O)[C@H]2O)[C@H](O)[C@H]1O` ?
output: -0.56

---

Species on record: Rattus norvegicus
Test: Specific activity of the DSI segment in rat intestine
Format: functional
experimentalReadout: Specific activity

Record excerpt, results attached:
CC12CCC(=O)C=C1CCC1C3CC[C@](O)(C(=O)CO[C@H]4O[C@H](CO)[C@@H](O)[C@H](O)[C@H]4O)C3(C)CC(O)[C@@]12F (some centres not stated) | 56.7 nM/min
C[C@]12C=CC(=O)C=C1CC[C@@H]1[C@@H]2C(O)C[C@@]2(C)[C@H]1CC[C@]2(O)C(=O)CO[C@@H]1O[C@H](CO)[C@@H](O)[C@H](O)[C@H]1O (some centres not stated) | 56.8 nM/min
CC12CCC(=O)C=C1CCC1C2C(O)CC2(C)C1CC[C@]2(O)C(=O)CO[C@@H]1O[C@H](CO)[C@@H](O)[C@H](O)[C@H]1O (some centres not stated) | 39.2 nM/min
CC1CC2C3CCC4=CC(=O)C=CC4(C)[C@@]3(F)C(O)CC2(C)[C@@]1(O)C(=O)CO[C@@H]1O[C@@H](CO)[C@@H](O)[C@H](O)[C@H]1O (some centres not stated) | 29.3 nM/min
C[C@]12C=CC(=O)C=C1CC[C@@H]1[C@@H]2C(O)C[C@@]2(C)[C@H]1CC[C@]2(O)C(=O)CO[C@@H]1O[C@@H](CO)[C@@H](O)[C@H](O)[C@H]1O (some centres not stated) | 122 nM/min

input: Would you kindly share the measured Specific activity for `O=[N+]([O-])c1ccc(O[C@@H]2O[C@H](CO)[C@@H](O)[C@H](O)[C@H]2O)cc1` ?
output: 86.6 nM/min

input: Would you kindly share the measured Specific activity for `O=[N+]([O-])c1ccc(O[C@@H]2O[C@H](CO)[C@H](O)[C@H](O)[C@H]2O)cc1` ?
output: 425 nM/min

input: Would you kindly share the measured Specific activity for `C[C@]12C=CC(=O)C=C1CC[C@@H]1[C@@H]2[C@@H](O)C[C@@]2(C)[C@H]1CC[C@]2(O)C(=O)CO[C@@H]1O[C@H](CO)[C@@H](O[C@@H]2O[C@H](CO)[C@@H](O)[C@H](O)[C@H]2O)[C@H](O)[C@H]1O` ?
output: 32.5 nM/min

---

Attribute: Total activity
Species: Rattus norvegicus
Experiment: Total activity of the entire contents of cecum segment in rat intestine
Format: functional
Field: numeric (µM/min). Do not append units.

Record excerpt, results attached:
O=[N+]([O-])c1ccc(O[C@@H]2O[C@H](CO)[C@@H](O[C@@H]3O[C@H](CO)[C@@H](O)[C@H](O)[C@H]3O)[C@H](O)[C@H]2O)cc1 | 2.6
CC1CC2C3CCC4=CC(=O)C=CC4(C)[C@@]3(F)C(O)CC2(C)[C@@]1(O)C(=O)CO[C@@H]1O[C@H](CO)[C@@H](O)[C@H](O)[C@H]1O (stereo partly specified) | 3.5
CC12CCC(=O)C=C1CCC1C2C(O)CC2(C)C1CC[C@]2(O)C(=O)CO[C@@H]1O[C@H](CO)[C@@H](O)[C@H](O)[C@H]1O (stereo partly specified) | 0.76
CC12CCC(=O)C=C1CCC1C3CC[C@](O)(C(=O)CO[C@H]4O[C@@H](CO)[C@@H](O)[C@H](O)[C@H]4O)C3(C)CC(O)[C@@]12F (stereo partly specified) | 1.4

input: Would you kindly share the measured Total activity for `O=[N+]([O-])c1ccc(O[C@@H]2O[C@H](CO)[C@@H](O)[C@H](O)[C@H]2O)cc1` ?
output: 9.1

input: Would you kindly share the measured Total activity for C[C@]12C=CC(=O)C=C1CC[C@@H]1[C@@H]2C(O)C[C@@]2(C)[C@H]1CC[C@]2(O)C(=O)CO[C@@H]1O[C@H](CO)[C@@H](O)[C@H](O)[C@H]1O (stereo partly specified) ?
output: 6.6

---

Organism: Rattus norvegicus
Assay: Vmax value was determined in homogenates of pooled cecal contents in rats
Assay type: ADME
experimentalReadout: Vmax (µM/min/g)
Field: numeric (µM/min/g). Do not append units.

Record excerpt, results attached:
C[C@]12C=CC(=O)C=C1CC[C@@H]1[C@@H]2C(O)C[C@@]2(C)[C@H]1CC[C@]2(O)C(=O)CO[C@@H]1O[C@@H](CO)[C@@H](O)[C@H](O)[C@H]1O (stereo partly specified) | 10.3
O=[N+]([O-])c1ccc(O[C@@H]2O[C@H](CO)[C@@H](O)[C@H](O)[C@H]2O)cc1 | 697
CC1CC2C3CCC4=CC(=O)C=CC4(C)[C@@]3(F)C(O)CC2(C)[C@@]1(O)C(=O)CO[C@@H]1O[C@H](CO)[C@@H](O)[C@H](O)[C@H]1O (stereo partly specified) | 10.2
CC12CCC(=O)C=C1CCC1C3CC[C@](O)(C(=O)CO[C@H]4O[C@H](CO)[C@@H](O)[C@H](O)[C@H]4O)C3(C)CC(O)[C@@]12F (stereo partly specified) | 2.2
C[C@]12C=CC(=O)C=C1CC[C@@H]1[C@@H]2C(O)C[C@@]2(C)[C@H]1CC[C@]2(O)C(=O)CO[C@@H]1O[C@H](CO)[C@@H](O)[C@H](O)[C@H]1O (stereo partly specified) | 2.6

input: Would you kindly share the measured Vmax for `O=[N+]([O-])c1ccc(O[C@@H]2O[C@H](CO)[C@H](O)[C@H](O)[C@H]2O)cc1` ?
output: 1233

---

Species on record: Rattus norvegicus
Assay: Specific activity of the stomach segment in rat intestine
Format: functional
experimentalReadout: log10 of Specific activity (log10 of the value in nM/min)
The base-10 logarithm of Specific activity, taken with Specific activity in nM/min, is what appears here.

Record excerpt, results attached:
C[C@]12C=CC(=O)C=C1CC[C@@H]1[C@@H]2C(O)C[C@@]2(C)[C@H]1CC[C@]2(O)C(=O)CO[C@@H]1O[C@@H](CO)[C@@H](O)[C@H](O)[C@H]1O (stereo partly specified) | 1.08
CC1CC2C3CCC4=CC(=O)C=CC4(C)[C@@]3(F)C(O)CC2(C)[C@@]1(O)C(=O)CO[C@@H]1O[C@@H](CO)[C@@H](O)[C@H](O)[C@H]1O (stereo partly specified) | 0.30
CC12CCC(=O)C=C1CCC1C3CC[C@](O)(C(=O)CO[C@H]4O[C@@H](CO)[C@@H](O)[C@H](O)[C@H]4O)C3(C)CC(O)[C@@]12F (stereo partly specified) | 0.89

input: Would you kindly share the measured log10 of Specific activity for C[C@]12C=CC(=O)C=C1CC[C@@H]1[C@@H]2C(O)C[C@@]2(C)[C@H]1CC[C@]2(O)C(=O)CO[C@@H]1O[C@H](CO)[C@@H](O)[C@H](O)[C@H]1O (stereo partly specified) ?
output: 0.83

input: Would you kindly share the measured log10 of Specific activity for `O=[N+]([O-])c1ccc(O[C@@H]2O[C@H](CO)[C@@H](O)[C@H](O)[C@H]2O)cc1` ?
output: 1.86

input: Would you kindly share the measured log10 of Specific activity for `O=[N+]([O-])c1ccc(O[C@@H]2O[C@H](CO)[C@H](O)[C@H](O)[C@H]2O)cc1` ?
output: 1.76
